# Test system: MS2 coat protein
# procedureDetails: apparent KD of MS2 coat protein; designed switch direction (-1 OFF switch, 1 ON switch): -1; higher = weaker reporter binding
# condition: input ligand: FMN 200 uM
measurementLabel: apparent KD of MS2 coat protein (nM)
// units = nM; emit number, no label

Example entries and their recorded answers appear below.
sequenceString	uom	apparent KD of MS2 coat protein
UCCGUUUGAGGAUAUAUGUAGACAAACAUGAGGAUCACCCAUGUCGGGAUCGAAAUGUCCGUAGAAGGCAAACUGG [Eternabot (L2) Solution 13] (Eterna round: R97, puzzle: Exclusion 5)	nM	65.2
UGUUGUCGCGCAGGAUAUGUAUGAGGAUCACCCAUAAGAGUAUAUUUACCAUGAGGAUCACCCAUGUAGAAGGGCGGGACAACA [pwkr exNG2 2xF5 1xFMN.11] (Eterna round: R96, puzzle: Exclusion NG 2)	nM	105
CGUCUGUCGGAAGGAUAUGUAGGGUGUCUUUUCCUCAGUACGAAGUACAUGAGGAUCACCCAUGUACAGAAGGUCCACAAUUAA [Essosoedso] (Eterna round: R96, puzzle: Exclusion NG 2)	nM	109
GCCCGGGCAGGAUAUACAAUGAUCGUGAGAAAUCGUGAUCGACAUGAGGAUCACCCAUGUAGAAGGGCCCGGGC [-34.5, -32.3 kcal, A 28% 2] (Eterna round: R97, puzzle: Exclusion 2)	nM	116
UGGCUUUGAGGAUAUACAUUGAAUAAGAUUCAUGUAAAACUACAUGAGGAUCACCCAUGUAGAAGGCAAGGCCU [Mat - Exclusion 2 - JL Mod - D74] (Eterna round: R97, puzzle: Exclusion 2)	nM	26.9

What the record says about AAAAUAAAGAUAGGAUAUGCAGUAUAGCAAGAUCCGGACAUGAGGAUCACCCAUGUACUUCGAAAGCAGAAGGAUCAAACAAAA [Zamale] (Eterna round: R96, puzzle: Exclusion NG 2) : apparent KD of MS2 coat protein is 30.3

What the record says about GGUCCUGAUGAUUUCCUAUACAUGAGGAUCACCCAUGUAUGUGUAUUUUGUUUUUCGCUUUUUGGUCGUCAAUAAUA [Mod-Hoo-honey-2] (Eterna round: R97, puzzle: Sensor, turn-off variant 1) : apparent KD of MS2 coat protein is 32.6

What the record says about UUCUUCUCUGUUAGGAUAUUCUCCGCAGAUGCCUGGAAGAAGGGACAUGAGGAUCACCCAUGUAGUGUAAGCUA [Eternabot (L2) Solution 58] (Eterna round: R97, puzzle: Brourd's mod of Exclusion 4) : apparent KD of MS2 coat protein is 40.6

What the record says about AGUGGGUCAGGAUAUUCUAUUAAUUACAUGAGGAUCACCCAUGUGAAUGGACAAGGGUGUGAAGAAGGGACUUGCG [Omei Ex5 A17d] (Eterna round: R97, puzzle: Exclusion 5) : apparent KD of MS2 coat protein is 324

* * *

Below, each of the sequences is paired with its reported apparent KD of MS2 coat protein value.
# Test system: MS2 coat protein
# procedureDetails: apparent KD of MS2 coat protein; higher = weaker reporter binding
# condition: Eterna round: R107; input ligand: theophylline 2 mM
Please format your answer as a value with the unit trailing.

Example entries and their recorded answers appear below.
sequenceString	recordedResult
CGGUACAUGAGGAUCACCCAUGUGUCGGAUACCAGAGAGCCGGCUCUCCCUUGGCAGCUGGUGCGACAUGAGGAUCACCCAUGUG [Exclusion Theophylline A GF19]	67.4 nM
UCGAAUGCGGCGGCCGCCACUCGCGGAUAACGAUAGCUUAACAUGAGGAUCACCCAUGUGUCAUGGAGGACCGGGCCCAUACCGU [azamullin]	26.6 nM

# input for lookup
Lab note: sequence GGGUGGUAGGCGGCCGCCACUGAUUUUUAUAUAUAUAUAACAUGAGGAUCACCCAUGUAGAUAUGCAGGACCGGGCCUGUUGUUU [aaaM] tested on MS2 coat protein; recorded apparent KD of MS2 coat protein was 46.1 nM

The reported numbers originate from the supplement of paper PMC9170038.
